- experimentalTarget: Peroxisome proliferator-activated receptor gamma (Rattus norvegicus, UniProt O88275)
- Sequence (O88275 whole entry): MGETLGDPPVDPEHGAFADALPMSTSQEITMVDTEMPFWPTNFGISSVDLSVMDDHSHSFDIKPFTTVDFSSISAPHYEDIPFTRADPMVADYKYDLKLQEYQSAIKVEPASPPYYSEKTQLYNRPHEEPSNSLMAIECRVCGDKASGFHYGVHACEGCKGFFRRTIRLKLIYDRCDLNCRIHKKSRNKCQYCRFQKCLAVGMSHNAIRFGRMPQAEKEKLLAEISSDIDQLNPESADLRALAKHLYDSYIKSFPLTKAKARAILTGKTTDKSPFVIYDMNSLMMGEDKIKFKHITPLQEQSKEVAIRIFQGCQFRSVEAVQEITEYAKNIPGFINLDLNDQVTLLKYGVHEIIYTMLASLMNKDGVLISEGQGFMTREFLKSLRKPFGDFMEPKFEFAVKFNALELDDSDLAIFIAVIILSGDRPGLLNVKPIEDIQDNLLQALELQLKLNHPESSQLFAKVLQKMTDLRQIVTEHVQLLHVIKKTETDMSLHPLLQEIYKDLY
- methodSummary: Displacement of [3H]rosigliatzone from PPARgamma in rat adipocytes
pIC50: −log10 of the molar value.
// reported pIC50 per item

compound	pIC50
O=C1C(O)=C(Cc2ccc(OCc3ccccc3F)cc2)C(=O)c2ccccc21	6.70
CCc1ccc(CCOc2ccc(CC3SC(=O)NC3=O)cc2)nc1 (stereo not given)	6.15
COc1ccc(OCCOc2ccc(CC3=C(O)C(=O)c4ccccc4C3=O)cc2)cc1	4.25
N#Cc1ccc(OCCOc2ccc(CC3=C(O)C(=O)c4ccccc4C3=O)cc2)cc1	5.72
O=C1C(O)=C(Cc2ccc(OCc3ccccc3)cc2)C(=O)c2ccccc21	5.44
